- Tested on: PA-1 (Ovary)
- ASSAY: MTT cytotoxicity assay, PA-1 cells
- Type: cell-based
- EXPERIMENTAL SETUP: 100n M, 48 hours
Provide the reported Percentage cytotoxicity of each item.
One number for each entry, in %.

These recorded examples may help you get a feel for the data.
[[record]]
substance = "D-Phe-Cys-Tyr-D-Trp-Orn-Deg-Pen-Thr-NH2 [SEQ ID NO: 2]"
system_tested = "PA-1 (Ovary)"
measurement_kind = "Percentage cytotoxicity"
val = 22.9

[[record]]
substance = "D-Phe-Cys-Tyr-D-Trp-Orn-Aib-Pen-Thr-NH2 [SEQ ID NO: 9]"
system_tested = "PA-1 (Ovary)"
measurement_kind = "Percentage cytotoxicity"
val = 22.7

[[record]]
substance = "D-Phe-Cys-Tyr-D-Trp-Orn-Ac5c-Pen-Thr-NH2 [SEQ ID NO: 3]"
system_tested = "PA-1 (Ovary)"
measurement_kind = "Percentage cytotoxicity"
val = 38.5


Consider now this further substance.
Prompt: Notebook entry, PA-1 (Ovary) assay: Percentage cytotoxicity of D-Phe-Cys-Tyr-D-Trp-Lys-Ac5c-Pen-Thr-NH2 [SEQ ID NO: 6] = ?
Completion: 22.6

====

- Tested on: U87MG (Glioblastoma)
- ASSAY: MTT cytotoxicity assay, U87MG cells
- Format: cell-based
- EXPERIMENTAL SETUP: 1nM, 48 hours
Provide the reported Percentage cytotoxicity of each item.
One number for each entry, in %.

These recorded examples may help you get a feel for the data.
[[record]]
substance = "D-Phe-Cys-Tyr-D-Trp-Orn-Aib-Pen-Thr-NH2 [SEQ ID NO: 9]"
system_tested = "U87MG (Glioblastoma)"
uom = "%"
val = 13.9

[[record]]
substance = "D-Phe-Cys-Tyr-D-Trp-Orn-Deg-Pen-Thr-NH2 [SEQ ID NO: 2]"
system_tested = "U87MG (Glioblastoma)"
uom = "%"
val = 22.8


// for each substance in input: emit Percentage cytotoxicity
1. D-Phe-Cys-Tyr-D-Trp-Orn-Ac5c-Pen-Thr-NH2 [SEQ ID NO: 3]
2. D-Phe-Cys-Tyr-D-Trp-Lys-Ac5c-Pen-Thr-NH2 [SEQ ID NO: 6]

Completion:
[44.2, 39.0]

====

Provide the reported Percentage cytotoxicity of each item.
- Test system: U87MG (Glioblastoma)
- ASSAY: MTT cytotoxicity assay, U87MG cells
- Format: cell-based
- EXPERIMENTAL SETUP: 1µM, 48 hours
Answers are plain numbers, in %.

These recorded examples may help you get a feel for the data.
[[record]]
substance = "D-Phe-Cys-Tyr-D-Trp-Orn-Deg-Pen-Thr-NH2 [SEQ ID NO: 2]"
system_tested = "U87MG (Glioblastoma)"
measurement_kind = "Percentage cytotoxicity"
uom = "%"
val = 33.9

[[record]]
substance = "D-Phe-Cys-Tyr-D-Trp-Lys-Ac5c-Pen-Thr-NH2 [SEQ ID NO: 6]"
system_tested = "U87MG (Glioblastoma)"
measurement_kind = "Percentage cytotoxicity"
uom = "%"
val = 39.5

[[record]]
substance = "D-Phe-Cys-Tyr-D-Trp-Orn-Aib-Pen-Thr-NH2 [SEQ ID NO: 9]"
system_tested = "U87MG (Glioblastoma)"
measurement_kind = "Percentage cytotoxicity"
uom = "%"
val = 42.9


Consider now this further substance.
Prompt: What value of Percentage cytotoxicity has been reported for the following substance? D-Phe-Cys-Tyr-D-Trp-Orn-Ac5c-Pen-Thr-NH2 [SEQ ID NO: 3]
Completion: 28.9

====

Provide the reported Percentage cytotoxicity of each item.
- System: L132 (Lung)
- ASSAY: MTT cytotoxicity assay, L132 cells
- Type: cell-based
- EXPERIMENTAL SETUP: 100n M, 48 hours
Numbers only, in %.

[[record]]
substance = "D-Phe-Cys-Tyr-D-Trp-Lys-Ac5c-Pen-Thr-NH2 [SEQ ID NO: 6]"
system_tested = "L132 (Lung)"
val = 22.9

[[record]]
substance = "D-Phe-Cys-Tyr-D-Trp-Orn-Ac5c-Pen-Thr-NH2 [SEQ ID NO: 3]"
system_tested = "L132 (Lung)"
val = 25.9

[[record]]
substance = "D-Phe-Cys-Tyr-D-Trp-Orn-Deg-Pen-Thr-NH2 [SEQ ID NO: 2]"
system_tested = "L132 (Lung)"
val = 22.8


Consider now this further substance.
Prompt: What value of Percentage cytotoxicity has been reported for the following substance? D-Phe-Cys-Tyr-D-Trp-Orn-Aib-Pen-Thr-NH2 [SEQ ID NO: 9]
Completion: 22.8

====

- Tested on: HeP2 (Laryngeal)
- ASSAY: MTT cytotoxicity assay, HeP2 cells
- Format: cell-based
- EXPERIMENTAL SETUP: 10 nM, 48 hours
Provide the reported Percentage cytotoxicity of each item.
Answers are plain numbers, in %.

These recorded examples may help you get a feel for the data.
[[record]]
substance = "D-Phe-Cys-Tyr-D-Trp-Orn-Deg-Pen-Thr-NH2 [SEQ ID NO: 2]"
val = 29.7

[[record]]
substance = "D-Phe-Cys-Tyr-D-Trp-Lys-Ac5c-Pen-Thr-NH2 [SEQ ID NO: 6]"
val = 14.8

[[record]]
substance = "D-Phe-Cys-Tyr-D-Trp-Orn-Ac5c-Pen-Thr-NH2 [SEQ ID NO: 3]"
val = 26.8


Consider now this further substance.
Prompt: Notebook entry, HeP2 (Laryngeal) assay: Percentage cytotoxicity of D-Phe-Cys-Tyr-D-Trp-Orn-Aib-Pen-Thr-NH2 [SEQ ID NO: 9] = ?
Completion: 21.4

====

- Tested on: PA-1 (Ovary)
- ASSAY: MTT cytotoxicity assay, PA-1 cells
- Type: cell-based
- EXPERIMENTAL SETUP: 1nM, 48 hours
Provide the reported Percentage cytotoxicity of each item.
Answers are plain numbers, in %.

[[record]]
substance = "D-Phe-Cys-Tyr-D-Trp-Orn-Ac5c-Pen-Thr-NH2 [SEQ ID NO: 3]"
val = 29.5

[[record]]
substance = "D-Phe-Cys-Tyr-D-Trp-Orn-Deg-Pen-Thr-NH2 [SEQ ID NO: 2]"
val = 29.5

[[record]]
substance = "D-Phe-Cys-Tyr-D-Trp-Orn-Aib-Pen-Thr-NH2 [SEQ ID NO: 9]"
val = 4.6


Consider now this further substance.
Prompt: What value of Percentage cytotoxicity has been reported for the following substance? D-Phe-Cys-Tyr-D-Trp-Lys-Ac5c-Pen-Thr-NH2 [SEQ ID NO: 6]
Completion: 19.4
